- measurement notes: Half-life in pH 7 phosphate buffer by using high-performance LC method
This section presents compounds with their documented half-life values.
Remember to follow the number with its unit.

compound | result
O=NN(CCNC(=O)[C@H]1OC(n2ccc(=O)[nH]c2=O)[C@H](O)[C@@H]1O)C(=O)NC1CCCCC1 (some centres not stated) | 8 h

// switching to the query compound
Fill in: half-life of CN(N=O)C(=O)NCCNC(=O)[C@H]1OC(n2ccc(=O)[nH]c2=O)[C@H](O)[C@@H]1O (some centres not stated) is ___ 17 h

----------
- measurement notes: Half-life in plasma by using UV method
- Type: ADME, cell-free
measurement kind: half-life (h)
Lab book: enter the figure in h, no units written.

Which half-life value is on record for Cc1cn(C2C[C@H](O)[C@@H](C(=O)NCCN(N=O)C(=O)NC3CCCCC3)O2)c(=O)[nH]c1=O (stereo partly specified) ? 11
